For each record, write down the corresponding Growth Rate.
system: U2OS; experiment: Incucyte cell viability with U2OS; format: toxicity, cell-based; settings: human, 6 h, 10 µM, compound concentration 10 uM, replicate number 1, timepoint 6 hours; also: unitless GR value; below 1 slowed growth and below 0 cell loss
Numbers only.

Reference set, count: 4
{"compound": "COC(=O)Nc1nc2ccc(C(=O)c3cccs3)cc2[nH]1", "Growth Rate": 0.3}
{"compound": "CCCN(CCc1cccs1)[C@H]1CCc2c(O)cccc2C1", "Growth Rate": 0.95}
{"compound": "CCCOc1ccc2[nH]cc(C3=CCNCC3)c2n1.Cl", "Growth Rate": 0.81}
{"compound": "Br.CS(=O)(=O)Nc1c(O)ccc2c1CCCC2C1=NCCN1 (stereo not given)", "Growth Rate": -0.8}

### Prompt Quote Growth Rate reported for C[S+](C)[O-] [DIMETHYL SULFOXIDE] please.
### Response 0.96
